# Tested on: male rats with HFD-induced obesity
# assay: Blood glucose, insulin and leptin levels and insulin resistance index in obese rats
# Format: in vivo, male Wistar rats
# reported.conditions: blood, after five-day i.p. treatment, 7 mg/kg (1, 2), 8 mg/kg (3), 10 mg/kg (4), M ± SEM, n = 5
Marks after values point to notes of the source that are not given here.
Assignment: determine reported Insulin, After for the given compounds.

Exercise: Provide measured Insulin, After value, entry: O=c1c(CO)n[nH]c2ccc(Br)cc12
Solution: 1.06 ± 0.13 ^a,c ng/mL

Exercise: For O=c1c(CO)n[nH]c2ccccc12 , write its Insulin, After.
Solution: 1.11 ± 0.14 ^a ng/mL

Exercise: Identify measured Insulin, After corresponding to O=c1c(CO)n[nH]c2ccc(Cl)cc12
Solution: 0.93 ± 0.13 ^b,c ng/mL

Exercise: Retrieve Insulin, After measured for O=c1c(CO)n[nH]c2ccc(F)cc12 and print it.
Solution: 1.19 ± 0.13 ^a,c ng/mL

----------
# tested.on: recombinant human PTP1B protein (Homo sapiens, UniProt P18031)
# Sequence (P18031 1-321 limits assumed): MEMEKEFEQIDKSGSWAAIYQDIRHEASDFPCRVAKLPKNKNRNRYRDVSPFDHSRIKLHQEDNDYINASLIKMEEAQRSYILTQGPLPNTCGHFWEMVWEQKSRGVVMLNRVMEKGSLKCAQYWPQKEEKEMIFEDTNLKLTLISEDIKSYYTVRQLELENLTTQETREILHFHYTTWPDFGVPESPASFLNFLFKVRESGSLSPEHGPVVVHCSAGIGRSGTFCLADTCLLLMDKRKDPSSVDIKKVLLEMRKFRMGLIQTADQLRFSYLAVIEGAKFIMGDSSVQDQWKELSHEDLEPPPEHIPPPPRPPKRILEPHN
# assay: Phosphatase activity assay with DiFMUP, PTP1B inhibition
# reported.conditions: DiFMUP 25 µM, 80 ng/mL PTP1B, compounds 0.1–80 μM; M ± SEM (n = 24); read-out: IC50 for the inhibitory effect on PTP1B activity
I'd be grateful if you could share measured IC50 for these entries.
Please reply with the bare figure in µM and do not write the unit itself.

Exercise: Entry O=c1c(CO)n[nH]c2ccccc12 needs its IC50 filled in; supply it.
Solution: 3.78

Exercise: Given the compound O=c1c(CO)n[nH]c2ccc(F)cc12 , write its reported IC50.
Solution: 6.01

Exercise: Complete the entry with IC50 for O=c1c(CO)n[nH]c2ccc(Br)cc12
Solution: 11

Exercise: Answer with the recorded IC50 for the compound listed here: O=c1c(CO)n[nH]c2ccc(Cl)cc12
Solution: 5.11

----------
# tested.on: human recombinant TC-PTP protein (Homo sapiens, UniProt P17706)
# Sequence (P17706 1-415): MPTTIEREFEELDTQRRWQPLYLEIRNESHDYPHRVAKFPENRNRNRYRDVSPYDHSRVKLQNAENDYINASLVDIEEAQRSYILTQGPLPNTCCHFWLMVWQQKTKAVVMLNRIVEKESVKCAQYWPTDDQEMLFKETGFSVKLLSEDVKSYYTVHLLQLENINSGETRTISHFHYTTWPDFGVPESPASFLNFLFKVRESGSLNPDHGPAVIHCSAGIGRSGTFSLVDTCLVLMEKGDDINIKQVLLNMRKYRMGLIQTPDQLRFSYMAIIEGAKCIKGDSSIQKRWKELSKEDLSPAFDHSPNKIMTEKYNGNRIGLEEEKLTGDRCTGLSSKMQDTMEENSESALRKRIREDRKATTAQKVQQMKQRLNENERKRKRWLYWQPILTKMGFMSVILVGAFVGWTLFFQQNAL
# assay: Phosphatase activity assay with DiFMUP, TC-PTP inhibition
# reported.conditions: DiFMUP 35 µM, 80 ng/mL TC-PTP, compounds 0.1–80 μM; M ± SEM (n = 24); read-out: IC50 for the inhibitory effect on TC-PTP activity
Consider the following molecules; for each one, report its pIC50.
Remember, pIC50 is on a log scale: it is -log10 of the molar concentration.

Exercise: Provide measured pIC50 value, entry: O=c1c(CO)n[nH]c2ccc(Cl)cc12
Solution: 5.53

Exercise: Check the records and state pIC50 for O=c1c(CO)n[nH]c2ccccc12
Solution: 4.72

Exercise: Please list pIC50 recorded for the molecule O=c1c(CO)n[nH]c2ccc(Br)cc12
Solution: 4.58

Exercise: Give pIC50 for the following molecule: O=c1c(CO)n[nH]c2ccc(F)cc12
Solution: 4.37
